- systemUnderTest: HIV-1 IN (Human immunodeficiency virus type 1 group M subtype B, UniProt P12497)
- Construct: 250 nM of recombinant HIV-1 integrase; made in house; host or cells: E. coli RosettaII
- experiment: Gel-based IN 3'-processing assay
- Format: biochemical
- experimentalConditions: at least three independent experiments, read-out: In Vitro IC50 +/−SD, 3'-P
- Experimental: IN reactions were carried out by adding drugs or an equivalent volume of 100% DMSO (dimethyl sulfoxide, used as the drug solvent) to a mixture of 20 nM duplex DNA (21T/21B) and 400 nM IN in 50 mM MOPS pH 7.2, 7.5 mM MgCl2, and 14 mM 2-mercaptoethanol. Reactions were performed at 37 °C for 2 h and quenched by addition of an equal volume of loading buffer [formamide containing 1% SDS (sodium dodecyl sulfate), 0.25% bromophenol blue, and xylene cyanol]. […]
Catalogue of compounds with associated IC50

- compound: "O=[N+]([O-])c1ccc(/C=C/c2ccc([N+](=O)[O-])cc2S(=O)(=O)O)c(S(=O)(=O)O)c1 [NSC163175]"
  readoutUnits: "nM"
  relationQualifier: ">"
  IC50: 111000
- compound: "Nc1ccc(/N=N/c2ccc(/C=C/c3ccc(/N=N/c4ccc(N)c5ccc(S(=O)(=O)O)cc45)cc3S(=O)(=O)O)c(S(=O)(=O)O)c2)c2cc(S(=O)(=O)O)ccc12 [NSC34933]"
  readoutUnits: "nM"
  relationQualifier: "="
  IC50: 1100
- compound: "O=S(=O)(O)c1cc(/N=N/c2cc(S(=O)(=O)O)c3ccccc3c2O)ccc1/C=C/c1ccc(/N=N/c2cc(S(=O)(=O)O)c3ccccc3c2O)cc1S(=O)(=O)O [NSC34931]"
  readoutUnits: "nM"
  relationQualifier: "="
  IC50: 320
- compound: "Nc1ccc(/C=C/c2ccc(N)cc2S(=O)(=O)O)c(S(=O)(=O)O)c1 [NSC163]"
  readoutUnits: "nM"
  relationQualifier: ">"
  IC50: 111000

----------
- systemUnderTest: HIV-1 IN mutant Y143R (Human immunodeficiency virus type 1 group M subtype B, UniProt P12497, Y1290R)
- Construct: RAL-resistant HIV-1 mutant integrases
- experiment: Gel-based IN strand transfer assay, Y143R mutant
endpoint: IC50 (nM)

- smilesNotation: "O=S(=O)(O)c1cc(/N=N/c2cc(S(=O)(=O)O)c3ccccc3c2O)ccc1/C=C/c1ccc(/N=N/c2cc(S(=O)(=O)O)c3ccccc3c2O)cc1S(=O)(=O)O"
  readoutUnits: "nM"
  testValue: 240
- smilesNotation: "Nc1ccc(/N=N/c2ccc(/C=C/c3ccc(/N=N/c4ccc(N)c5ccc(S(=O)(=O)O)cc45)cc3S(=O)(=O)O)c(S(=O)(=O)O)c2)c2cc(S(=O)(=O)O)ccc12"
  readoutUnits: "nM"
  testValue: 95

----------
- systemUnderTest: HIV-1 IN mutant N155H (Human immunodeficiency virus type 1 group M subtype B, UniProt P12497, N1302H)
- Construct: RAL-resistant HIV-1 mutant integrases; made in house; host or cells: E. coli RosettaII
- experiment: biochemical
- Type: biochemical
pIC50: −log10 of the molar value.
endpoint: pIC50

- smilesNotation: "O=S(=O)(O)c1cc(/N=N/c2cc(S(=O)(=O)O)c3ccccc3c2O)ccc1/C=C/c1ccc(/N=N/c2cc(S(=O)(=O)O)c3ccccc3c2O)cc1S(=O)(=O)O"
  endpoint: "pIC50"
  testValue: 6.80
- smilesNotation: "Nc1ccc(/N=N/c2ccc(/C=C/c3ccc(/N=N/c4ccc(N)c5ccc(S(=O)(=O)O)cc45)cc3S(=O)(=O)O)c(S(=O)(=O)O)c2)c2cc(S(=O)(=O)O)ccc12"
  endpoint: "pIC50"
  testValue: 7.04
